# System: HCV replicon 1A
# experimental.protocol: microbe, parasite or virus in culture
# Type: cell-based, Hepatitis C virus (HCV)
# experimental.context: HCV replicon 1A; Replicon Assay A
So basically: is IC50 under 9 pM? Then y. Not under? Then n.

- compound: "COC(=O)N[C@H](C(=O)N1CCC[C@H]1c1ncc(-c2cc(F)c3c(c2)OC(c2ccc(CC(C)C)s2)n2c-3cc3cc(-c4cnc([C@@H]5CCCN5C(=O)[C@@H](NC(=O)OC)C(C)C)[nH]4)ccc32)[nH]1)C(C)C (single isomer, unassigned) [Compound 521]"
  study.system: "HCV replicon 1A"
  assigned.class: "y"
- compound: "COC(=O)NC(C(=O)N1[C@@H]2C[C@@H]2C[C@H]1c1ncc(-c2ccc3c(c2)c(F)c2n3C(c3ccc(C4CC4)s3)Oc3cc(-c4cnc([C@@H]5CCCN5C(=O)[C@@H](NC(=O)OC)C(C)C)[nH]4)ccc3-2)[nH]1)C1C[C@@H](C)O[C@@H](C)C1 (single isomer, unassigned) [Compound 643]"
  study.system: "HCV replicon 1A"
  assigned.class: "y"
- compound: "COC(=O)N[C@H](C(=O)N1C[C@H](F)C[C@H]1c1nc(-c2ccc3c(c2)OC(c2ccc(C)s2)n2c-3cc3cc(-c4c[nH]c([C@@H]5C[C@H]6C[C@H]6N5C(=O)[C@@H](NC(=O)OC)C5CCOCC5)n4)ccc32)c[nH]1)C1CCOCC1 (single isomer, unassigned) [Compound 731]"
  study.system: "HCV replicon 1A"
  assigned.class: "n"
- compound: "COC(=O)N[C@H](C(=O)N1C[C@H](F)C[C@H]1c1cnc(-c2ccc3c(c2)cc2n3C(c3cc4ccccc4s3)Oc3cc(-c4cnc([C@@H]5C[C@@H](F)CN5C(=O)[C@@H](NC(=O)OC)C(C)C)[nH]4)ccc3-2)[nH]1)C(C)C (single isomer, unassigned) [Compound 805]"
  study.system: "HCV replicon 1A"
  assigned.class: "n"
- compound: "COC(=O)N[C@H](C(=O)N1CCC[C@H]1c1ncc(-c2cc(C)c3c(c2)OC(c2ccc(C4CC4)s2)n2c-3cc3cc(-c4cnc([C@@H]5C[C@H]6C[C@H]6N5C(=O)[C@@H](NC(=O)OC)C(C)C)[nH]4)ccc32)[nH]1)C(C)C (single isomer, unassigned) [Compound 756]"
  study.system: "HCV replicon 1A"
  assigned.class: "y"
- compound: "COC(=O)N[C@H](C(=O)N1CCC[C@H]1c1ncc(-c2ccc3c(c2)OC(c2cc4sccc4s2)n2c-3cc3cc(-c4c[nH]c([C@@H]5C[C@H]6C[C@H]6N5C(=O)[C@@H](NC(=O)OC)C(C)C)n4)ccc32)[nH]1)C(C)C (single isomer, unassigned) [Compound 717]"
  study.system: "HCV replicon 1A"
  assigned.class: "n"

====

# pIC50 annotations
# Test system: HCV replicon 1AQ30D
# experimental.protocol: microbe, parasite or virus in culture
# Format: cell-based, Hepatitis C virus (HCV)
# experimental.context: HCV replicon 1A Q30D; Replicon Assay B; read-out: 1A Q30D IC50
# Method: In an alternate assay (“Replicon Assay B”), 1000 cells were seeded per well in a 384-well collagen coated black plate from Greiner bio-one (Cat #781946) in 5% FBS. Inhibitors of this invention were added at 24 h post-seeding, and the plates were incubated for 3 days. […] HCV replicon RNA level was measured by real-time PCR using the RNA-to-CT kit from Applied Biosystem (Cat #4392656) and genotype-specific primers and probes. […]
pIC50: −log10 of the molar value.

- compound: "COC(=O)N[C@H](C(=O)N1CCC[C@H]1c1ncc(-c2cc(F)c3c(c2)OC(c2ccc(C4(C)CC4)s2)n2c-3cc3cc(-c4cnc([C@@H]5CCCN5C(=O)[C@@H](NC(=O)OC)C(C)C)[nH]4)ccc32)[nH]1)C(C)C (single isomer, unassigned) [Compound 836]"
  pIC50: 9.53
- compound: "COC(=O)NC(C(=O)N1CCCC1c1ncc(-c2cc(F)c3c(c2)OC(c2ccc(C4CC4)s2)n2c-3cc3cc(-c4cnc(C5CC6CC6N5C(=O)C(NC(=O)OC)C5CCOCC5)[nH]4)ccc32)[nH]1)C(C)C (mixture of isomers) [Compound 651]"
  pIC50: 10.75
- compound: "COC(=O)NC(C(=O)N1CCC[C@H]1c1ncc(-c2ccc3c(c2)cc2n3C(c3ccc(C(F)(F)F)s3)Oc3cc(-c4cnc([C@@H]5CCCN5C(=O)[C@@H](NC(=O)OC)C(C)C)[nH]4)cc(F)c3-2)[nH]1)C1C[C@@H](C)O[C@@H](C)C1 (single isomer, unassigned) [Compound 649]"
  pIC50: 9.39
- compound: "COC(=O)N[C@H](C(=O)N1CCC[C@H]1c1ncc(-c2cc(F)c3c(c2)OC(c2ccc(CC(C)(C)OC)s2)n2c-3cc3cc(-c4cnc([C@@H]5CCCN5C(=O)[C@@H](NC(=O)OC)C(C)C)[nH]4)ccc32)[nH]1)C(C)C (single isomer, unassigned) [Compound 844]"
  pIC50: 9.62
